The entries below are paired with their reported Release.
- study-system: Gastrin-releasing peptide receptor (Rattus norvegicus)
- measurement-protocol: Tested for the inhibition of Bombesin-stimulated amylase release at 5 uM concentration in the presence of 0.2 nM of bombesin in rat pranceatic acini
- Format: functional
Where a SMILES comes first, the peptide text is derived from it. The star is where a group is joined. X2 = CC(=O)NC[C@H](CC(C)C)N*
Kindly write the number and append the unit.

Answered cases to consult:
1) CSCC[C@H](NC[C@H](CC(C)C)NC(=O)[C@H](Cc1c[nH]cn1)NC(=O)CNC(=O)[C@@H](NC(=O)[C@H](C)NC(=O)[C@H](Cc1c[nH]c2ccccc12)NC(=O)[C@H](N)Cc1ccccc1)C(C)C)C(N)=O	13.1%
2) CSCC[C@@H](C(N)=O)N(C=O)C[C@H](CC(C)C)NC(=O)[C@H](Cc1c[nH]cn1)NC(=O)CNC(=O)[C@@H](NC(=O)[C@H](C)NC(=O)[C@H](Cc1c[nH]c2ccccc12)NC(=O)[C@H](Cc1c[nH]cn1)NC(=O)[C@H](CC(N)=O)NC(=O)CN)C(C)C	13.1%

The measured Release associated with `CC(=O)NC[C@H](CC(C)C)NC(=O)[C@H](Cc1c[nH]cn1)NC(=O)CNC(=O)[C@@H](NC(=O)[C@H](C)NC(=O)[C@H](Cc1cn(C=O)c2ccccc12)NC(=O)[C@H](Cc1c[nH]cn1)NC(=O)[C@H](N)Cc1ccccc1)C(C)C` reads 4.8%

The measured Release associated with CC(=O)NC[C@H](CC(C)C)NC(=O)[C@H](Cc1c[nH]cn1)NC(=O)CNC(=O)[C@@H](NC(=O)[C@H](C)NC(=O)[C@H](Cc1c[nH]c2ccccc12)NC(=O)[C@H](Cc1c[nH]cn1)NC(=O)[C@@H](N)CCC(N)=O)C(C)C (H-QHWAVGH-X2) reads 8.2%
